Data origin: PubChem BioAssay (NCI)

- METHOD DESCRIPTION: NCI Yeast Anticancer Drug Screen. Data for the mlh1 rad18 strain (AID 175)
- EXPERIMENTAL CONTEXT: S. cerevisiae mlh1 rad18 strain growth inhibition; at 50.0 µM; stronger effect = higher value
About 79,000 compounds went through this panel and 15% of them were active in at least one assay; those are over-represented in the sample as a whole.
Dear colleague, classification is by growth inhibition, with ranges listed here: small value: < -10%; mid value: ≥ -10% and < 90%; large value: ≥ 90%

>  <COMPOUND>
CCN(CC)P1(=O)OP(=O)(N(CC)CC)OP(=O)(N(CC)CC)O1 (centres undefined)

>  <CLASS>
small value

$$$$
>  <COMPOUND>
N#Cc1cccc([N+](=O)[O-])c1

>  <CLASS>
small value

$$$$
>  <COMPOUND>
O=C(Nc1ccc(S(=O)(=O)Nc2ccc(N=Nc3ccc(N=Nc4ccccc4)cc3)cc2)cc1)C(N1CC1)(N1CC1)N1CC1

>  <CLASS>
mid value

$$$$
>  <COMPOUND>
Oc1c(Cl)cc(Cl)cc1Cl.[Cu+2]

>  <CLASS>
large value

$$$$
>  <COMPOUND>
Cc1cc(OC(=O)N(CCCl)CCCl)c(C(C)C)cc1N=O

>  <CLASS>
large value

$$$$

Exam item: # bin label for CN1C2CCC1CC(OC(=O)C1CCC(C(=O)OC3CC4CCC(C3)N4C)(c3ccccc3)c3ccccc31)C2 (centres undefined)
Marked response: small value

###

- METHOD DESCRIPTION: NCI Yeast Anticancer Drug Screen. Data for the rad50 strain (AID 155);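 also: 0% = growth of vehicle-only cultures of the same strain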
- EXPERIMENTAL CONTEXT: S. cerevisiae rad50 strain growth inhibition; at 50.0 µM (retest, dose inferred, filed as 5.0)
This is part of a sample that, as a whole, favours compounds with a hit. Of some 79,000 tested, about 15% had one in any assay. The source made the active and inactive calls. Rule as the data show it: active = growth inhibition above about 70%; inactive = the rest.
Field 'call' accepts yes for active, no for inactive

Recorded results for 4 compounds are shown here.
>  <COMPOUND>
Cc1ccc2c(-c3ccccc3)c3ccccc3[s+]c2c1

>  <CLASS>
yes

$$$$
>  <COMPOUND>
CC(C=O)[Se]c1ccccc1 (stereo not drawn)

>  <CLASS>
no

$$$$
>  <COMPOUND>
COc1ccc(/C=C/[N+](=O)[O-])cc1

>  <CLASS>
yes

$$$$
>  <COMPOUND>
[Se]C1=NCCN1

>  <CLASS>
no

$$$$

Exam item: Please indicate how the test categorized CC(C)CC(C)(c1ccc(O)cc1)c1ccc(O)cc1 .
Marked response: yes

Exam item: # outcome recorded in this test, key = COc1ccc([As+](c2ccccc2)(c2ccccc2)c2ccccc2)cc1
Marked response: yes

Exam item: Just curious, what result did O=C([CH-]C(=O)c1ccccc1)c1ccccc1.O=C([CH-]C(=O)c1ccccc1)c1ccccc1.O=C([CH-]C(=O)c1ccccc1)c1ccccc1.[Cl-].[Zr+4] get here?
Marked response: yes

Exam item: Per the assay record, what outcome was assigned to N#C[S-].[La+3].c1ccc(-c2ccccn2)nc1.c1ccc(-c2ccccn2)nc1.c1ccc(-c2ccccn2)nc1 ?
Marked response: yes

###

# growth inhibition per entry
- METHOD DESCRIPTION: NCI Yeast Anticancer Drug Screen. Data for the cln2 rad14 strain (AID 165);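 also: 0% = growth equal to vehicle treated cultures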
- EXPERIMENTAL CONTEXT: S. cerevisiae cln2 rad14 strain, at 50.0 µM, stronger effect = higher value
The panel holds about 79,000 compounds, 15% with a hit somewhere; the sample as a whole holds those more often.
Numbers only here, please. The scale is %.

Answered examples (6):
>  <COMPOUND>
Cc1ccc2c(-c3ccccc3)c3ccccc3[s+]c2c1

>  <growth inhibition [%]>
99

$$$$
>  <COMPOUND>
CCC(=O)N(c1ccccc1)C(C)CN1CCC(O)(c2ccccc2)CC1 (stereo not given)

>  <growth inhibition [%]>
-37

$$$$
>  <COMPOUND>
CCOP(=O)(NC(C)C)OCC

>  <growth inhibition [%]>
16.9

$$$$
>  <COMPOUND>
CC1(C)CN=C(Nc2ccc(F)cc2)S1

>  <growth inhibition [%]>
19.3

$$$$
>  <COMPOUND>
Cc1ccc(O)c(Cl)c1

>  <growth inhibition [%]>
-11.7

$$$$
>  <COMPOUND>
CNP1(NC)=NP(N(C)C)(N(C)C)=NP(N(C)C)(N(C)C)=N1

>  <growth inhibition [%]>
-19.4

$$$$

Exam item: Can you look up the measured growth inhibition of NCCN.NCCN.O=C([O-])C(=O)[O-].[Cl-].[Co+3] for me?
Marked response: -0.45

Exam item: Could you tell me which growth inhibition is on file for C[CH2][Sn]([CH2]C)[O][Sn]([Cl])([CH2]C)[CH2]C ?
Marked response: 84

Exam item: Need growth inhibition, item CC(C)c1ccc(C(C)C)c(C(=O)CN2CCOCC2)c1
Marked response: -3.3

Exam item: Field request: growth inhibition | item: CCCCCCCCOC(=O)c1ccccc1C(=O)OCCCCCCCC
Marked response: 9.25
